# assayExplanation: yeast display, Sf9 membrane polyspecificity reagent, FACS + sequencing; frameworks hold sequencing errors

[
  {
    "residueCodes": "QVQLVESGGGLVQAGGSLRLSCAASGRTFRTYAMGWYRQAPGKERELVAAISRTGRTNYADSVKGRFTISRDNAKNTVYLQMNSLKPEDTAVYYCAADRVGWSGYRGDYWGQGTQVTVSS",
    "polyreactivity (PSR sort gate)": "high polyreactivity"
  },
  {
    "residueCodes": "QVQLVESGGGLVQAGGSLRLSCAASGRTFVTNAMGWSRQAPGKERELVAAISSGDRTYYADSVKGRFTISRDNAKNTVYLQMNSLKPEDTAVYYCAKVSRRGIVGYWGQGTQVTVSS",
    "polyreactivity (PSR sort gate)": "high polyreactivity"
  }
]

###

# assayExplanation: yeast display, Sf9 membrane polyspecificity reagent, FACS + sequencing; frameworks hold sequencing errors

[
  {
    "residueCodes": "HVQLVESGGGLVQAGGSLRLSCAASGSTFSGYAMGWYRQAPGKERELVAAISSSGGSTYYADSVKGRFTISRDNAKNTVYLQMNSLKPEDTAVYYCNADEYRGTSTEFEYWGQGTQVTVSS",
    "polyreactivity (PSR sort gate)": "high polyreactivity"
  },
  {
    "residueCodes": "QVQLVESGGGLVQAGGSLRLSCAASGSIFDYYAMGWYRQAPGQERELVAAISVRGGSTYYADSVKGRFTISRDNANNTVYLHKNSLKPEDTAVYYCAADYAYNKYLSVEYWGQGTQVTVSS",
    "polyreactivity (PSR sort gate)": "low polyreactivity"
  },
  {
    "residueCodes": "QVQLVESGGGLVQAGGSLRLSCAASGRISKYNAMGWYRQAPGKERELVAAINQRGTSTYYADSVKGRFTISRDNEMNTVYLQMNSLKPEDTAVYYCATTGYRFYLMDYWGQGTQVTVSS",
    "polyreactivity (PSR sort gate)": "low polyreactivity"
  },
  {
    "residueCodes": "QVQLVESGGGLVQAGGSLRLSCAASGSTFGKNALGWYRQAPGKERELVAAITRRGGSTNYADSVKGRFTISRDNAKNTVYLQMNSLKPEDTAVYYCNAGYGYGYPKYDYWGQGTQVTVSS",
    "polyreactivity (PSR sort gate)": "high polyreactivity"
  }
]

###

# assayExplanation: yeast display, Sf9 membrane polyspecificity reagent, FACS + sequencing; frameworks hold sequencing errors

[
  {
    "residueCodes": "QVQLVESGGGLVLAGGSLRLSCAASGRTFGWNAMGWYRQAPGTERELVAAISWSGGSTSYADSVKARFTISRDNAKNTVYLQMNSLKPEDTAVYYCGKLDSYGMYYWGQGTQVTVSS",
    "polyreactivity (PSR sort gate)": "low polyreactivity"
  },
  {
    "residueCodes": "QVQLVESGGGLVQAGRSNRISCAASGGIFSYYAMGWYRQAPGKEREFVAAIDWGGGSTYYADSLKGRFTLSRDNAKNTVYLQMNSLKPEDTAVYYCAAEIYPIGWDDYDYWGQGTQVTVSS",
    "polyreactivity (PSR sort gate)": "low polyreactivity"
  }
]

###

# assayExplanation: yeast display, Sf9 membrane polyspecificity reagent, FACS + sequencing; frameworks hold sequencing errors
recordedMetric: polyreactivity (PSR sort gate)

[
  {
    "residueCodes": "QFQLVESGGGLVQAGGSLRLSCAASGFIFKSNAMGWYRQAPGKERELVAAITKRGGSTYYADSVKGRFTISGDYAKNTVYLQMNSLKPEDTAVYYCAVRKPYSRYTVNYDSWGQGTQVTVSS",
    "observedMeasurement": "high polyreactivity"
  },
  {
    "residueCodes": "QVHLVESGGGLVQAGGSLRLSCAASGSIYLITAMGWYRQAPGKERELVAAISSRGTSTYYADSVKGRFTISRDNAKNTVYFQMNSLKAEDTAVYYCAARAIRANGYDYWGQCTQVTVSS",
    "observedMeasurement": "high polyreactivity"
  }
]

###

# assayExplanation: yeast display, Sf9 membrane polyspecificity reagent, FACS + sequencing; frameworks hold sequencing errors
recordedMetric: polyreactivity (PSR sort gate)

[
  {
    "residueCodes": "QVQLVESGGGLVQAGGSLRLSCAASGITFDGYAMGWYRQAPGKETELVAANSWSGGRTYYADSVKGRFTISRDNAKNTVYLQMNSLKPEDTAVYYCGVYRRGVVYLLTSGVDYWGQGTQVTVSS",
    "polyreactivity (PSR sort gate)": "high polyreactivity"
  },
  {
    "residueCodes": "QVQLVESGGGLVQAGGSLRLSCAASGRTCSRYAMGLYRQAPGKERELFAAISKSSGTTSYADSVKGRFSISRDNAKNTVYLQMIRLNPEDTAVYYFAAGITGRYYGVRFSEDYWGQGTQVTVSS",
    "polyreactivity (PSR sort gate)": "high polyreactivity"
  },
  {
    "residueCodes": "QVQLVESGGGLVQAGGSLRLSCAASGRILYPYAMGWYRQAPGKERESVAAITFRGGNTYYADSVKGRFTISRDQAKNTVYLQMNSLKPEDTAVYYCAAPQRWTYAYDYWGQGTQVTVSS",
    "polyreactivity (PSR sort gate)": "high polyreactivity"
  },
  {
    "residueCodes": "QVQLVESGGGLVQAGGSLRLSCAASGSIFRANAMGWYRQAPGKERELVAAISRRGGNTYYADSVKGRFTISRDNAKNTVYLQMNSLKPEDTAVYYCAADRSEYDYWGQGTQVTVSS",
    "polyreactivity (PSR sort gate)": "high polyreactivity"
  },
  {
    "residueCodes": "QVQLVDSGGGLVQAGGSLRLRCAASGRNFGTNAMGWYRPAPGKERELVATITRGGGNTYYADSVKGRFTISRDNAKNTVYLQMNSLKPEDTAVYYCAAGVIFYVGTRVYAYDYWGQGTQLTVSS",
    "polyreactivity (PSR sort gate)": "low polyreactivity"
  }
]

GET /values?readout=polyreactivity (PSR sort gate)&item= QVQLVESGGGLVQAGGSLRLSCAASGSIIDTYAMGWYRQAPGKERELVASWSGGSTYYADSVKGRFTISRDNAKNTVYLQMNSLKPEDTAVYYCAKDYYVQPPGTRDDYWGQGTQVTVSS
low polyreactivity

GET /values?readout=polyreactivity (PSR sort gate)&item= QVQLVESGGGLVQAGGSLRLSCAASGSTFRSNAMGWYRQAPGKERELVAVISTRGGRTYYADSVKGRFTISRDNAKNTVYLQMNSLKPEDTAVYYCNTQISGSPYPYYYWGQGTQVTVSS
high polyreactivity

GET /values?readout=polyreactivity (PSR sort gate)&item= QVQLVESGGGLVQAGGSLRLSCAASGSTFYANAMGWYRQAPGKERELVAAIDWSGATTYYADSVKGRFTISRDTAKNTVYLQMNSLKPEDTAVYYCAAYRYRPHVHRYYRYDYWGQGTQVTVSS
high polyreactivity

GET /values?readout=polyreactivity (PSR sort gate)&item= QVQLQESGGGLVQAGGSLRLSCASSGSISGPHVMGWYRQAPGKEREFVAAINVGANTYYADNVKGRFTISRDNAKNTVYLQMNSLKPEDTAVYYCAAVYYGDIGHEYWGQGTQVTVSC
low polyreactivity

GET /values?readout=polyreactivity (PSR sort gate)&item= QVQLVESGGGLVQAGGSLRLSCAASGSTFYPYAMGWYRQAPGKERELVAAISISGGITYYADSVKGRFTISRDNAKNTVYLQMNSLKPEDTAVYYCAAEYLAVSGYWYDYWGQGTQVTVSS
high polyreactivity

###

# assayExplanation: yeast display, Sf9 membrane polyspecificity reagent, FACS + sequencing; frameworks hold sequencing errors
recordedMetric: polyreactivity (PSR sort gate)

Solved cases (8 shown):
[
  {
    "residueCodes": "QVQLVESRGGLVQAGGSLRLSCAASGRILYVNDMGWYRQAPRKERELVAAISWRGGRTYYADSVKGRFTISRDNAKNTVYLQMNSLKPEDTAVYYCAARARGGYQRDYYWGQGTQVTVSS",
    "recordedMetric": "polyreactivity (PSR sort gate)",
    "observedMeasurement": "high polyreactivity"
  },
  {
    "residueCodes": "QVQLVESGGGLVQAGGSLRLSCAASGRIFDYNTMGWYRQAPGKERELVAAITGGTGSTYYADSVKGRFTISRDNAKNTVYLQMNSLKPEDTAVYYCAAGFHKRVTPEILYDYWGQGTQVTVSS",
    "recordedMetric": "polyreactivity (PSR sort gate)",
    "observedMeasurement": "low polyreactivity"
  },
  {
    "residueCodes": "QVQLVESGGGIVPAGGSLRLSCAASGRSFYNYAMGWYRQAPGKERELVASISGIGGTTYYADSVKGRFTISRDNAKNTVYFQMNSLKPEDTAVYYCAARLYNWRRYGYWGQRTQVTVSS",
    "recordedMetric": "polyreactivity (PSR sort gate)",
    "observedMeasurement": "high polyreactivity"
  },
  {
    "residueCodes": "QGQLEESGGGLVQAGGSLRLSCAASGSLFPSYVMGWYRQAPGKERELVAAIRTSGDRTYYADSVKGRFTNSRDNAKNTVYLQMNCLKPEDTAVYYCAAPYGHKSPRMYYWGQGTQVTVSS",
    "recordedMetric": "polyreactivity (PSR sort gate)",
    "observedMeasurement": "high polyreactivity"
  },
  {
    "residueCodes": "QVQLVESGGGLVQAGGSLLLSCAASGSIFYYYAMGWYRQAPGKERELVAAISKSGGSTYADSVKGRFTISRDNAKNTVYLQMNSLKPEDTAVYYCAKEFKYWGYPYDYWGQGTQVTVSS",
    "recordedMetric": "polyreactivity (PSR sort gate)",
    "observedMeasurement": "low polyreactivity"
  },
  {
    "residueCodes": "QVQLVESGGGLVQAGGSLRLSCAASGSTLSDNAMGWYRQAPGKERELVASISWSGGTYYADSVKGRFTISRDNAKNTVYLQMNSLKPEDTAVYYCAAYIYYNYSRQYWFDYWGQGTQVTVSS",
    "recordedMetric": "polyreactivity (PSR sort gate)",
    "observedMeasurement": "low polyreactivity"
  },
  {
    "residueCodes": "QVQLVESGGGLVQAGGSLRLSCAASASTFYLYAMGWYRQAPGKERELVAAISRGGTTYYADSVKGRFTISRDNEKNSVYLQMNSLKPEDTAVYYCNKLRRYSEYNADYGDYWGQGTQVTVSS",
    "recordedMetric": "polyreactivity (PSR sort gate)",
    "observedMeasurement": "high polyreactivity"
  },
  {
    "residueCodes": "QVQHVESGGGLVQAGGSLRLSCAASGFTFAWNAMGWYRQAPGKERELVAAITWGDNSTYYADSVKGRFTISRDNAKNTVYLQMNSLKPEDTAVYYCAARVTHWYYLFGYDYWGQATQVTVSS",
    "recordedMetric": "polyreactivity (PSR sort gate)",
    "observedMeasurement": "low polyreactivity"
  }
]

GET /values?readout=polyreactivity (PSR sort gate)&item= QVQLVESGGGLVQAGGSLRLSCAASGYTFNYYAMGWYRQAPGKEREFVASTYADSVKGRFTISRDNAKNTVYLQMNSLKPEDTAVYYCNARNLGRYLVLSYGYWRQGTQVTVSS
low polyreactivity
